experiment: Individual predicted steady‐state exposures; format: in vivo, human; conditions: human, plasma, intravenous, C max,ss geometric mean (CV), Bacteremia at baseline: No
Below, each entry is listed alongside its reported Cmax.
Field format: number, assumed ng/mL, no unit text.

>>> recorded_number("NC(=O)[C@@H]1CC[C@@H]2CN1C(=O)N2OS(=O)(=O)O")
12600

We next turn to a different compound, shown below.
Query :: Bench note: what Cmax did CC(C)(O/N=C(\C(=O)N[C@@H]1C(=O)N2C(C(=O)[O-])=C(C[n+]3ccccc3)CS[C@H]12)c1csc(N)n1)C(=O)O show?
Result :: 71900

====

assay: Individual predicted steady‐state exposures; format: in vivo, human; details: human, plasma, intravenous, AUCss,0–24 geometric mean (CV), Baseline APACHE II score Missing
Below, each entry is listed alongside its reported AUC.
Field format: number, assumed µg·h/mL, no unit text.

>>> recorded_number("CC(C)(O/N=C(\\C(=O)N[C@@H]1C(=O)N2C(C(=O)[O-])=C(C[n+]3ccccc3)CS[C@H]12)c1csc(N)n1)C(=O)O")
979

We next turn to a different molecule, shown below.
Query :: Bench note: what AUC did NC(=O)[C@@H]1CC[C@@H]2CN1C(=O)N2OS(=O)(=O)O show?
Result :: 138

====

experiment: Individual predicted steady‐state exposures; format: in vivo, human; settings: human, plasma, intravenous, AUCss,0–24 geometric mean (CV), Patient population: Non‐VAP
Reported Metric: AUC (µg·h/mL)
Field format: number, assumed µg·h/mL, no unit text.

>>> recorded_number("NC(=O)[C@@H]1CC[C@@H]2CN1C(=O)N2OS(=O)(=O)O")
183

Query :: Bench note: what AUC did CC(C)(O/N=C(\C(=O)N[C@@H]1C(=O)N2C(C(=O)[O-])=C(C[n+]3ccccc3)CS[C@H]12)c1csc(N)n1)C(=O)O show?
Result :: 1020

====

assay: Individual predicted steady‐state exposures; format: in vivo, human; conditions: human, plasma, intravenous, C max,ss geometric mean (CV), Baseline WBC count (cells/μL) ≤ 12,000
Reported Metric: Cmax (ng/mL)
Field format: number, assumed ng/mL, no unit text.

>>> recorded_number("NC(=O)[C@@H]1CC[C@@H]2CN1C(=O)N2OS(=O)(=O)O [Avibactam, avibactam]")
12800

We next turn to a different compound, shown below.
Query :: Bench note: what Cmax did CC(C)(O/N=C(\C(=O)N[C@@H]1C(=O)N2C(C(=O)[O-])=C(C[n+]3ccccc3)CS[C@H]12)c1csc(N)n1)C(=O)O [Ceftazidime, ceftazidime] show?
Result :: 74600

====

assay: Individual predicted steady‐state exposures; type: in vivo, human; details: human, plasma, intravenous, AUCss,0–24 geometric mean (CV), Baseline APACHE II score > 10
Reported Metric: AUC (µg·h/mL)
Field format: number, assumed µg·h/mL, no unit text.

>>> recorded_number("NC(=O)[C@@H]1CC[C@@H]2CN1C(=O)N2OS(=O)(=O)O")
170

Query :: Bench note: what AUC did CC(C)(O/N=C(\C(=O)N[C@@H]1C(=O)N2C(C(=O)[O-])=C(C[n+]3ccccc3)CS[C@H]12)c1csc(N)n1)C(=O)O show?
Result :: 938

====

Below, each entry is listed alongside its reported AUC.
assay: Individual predicted steady‐state exposures; type: in vivo, human; settings: human, plasma, intravenous, AUCss,0–24 geometric mean (CV), Baseline WBC count (cells/μL) ≤ 12,000
Could you kindly put the unit after your number?

Query :: Bench note: what AUC did NC(=O)[C@@H]1CC[C@@H]2CN1C(=O)N2OS(=O)(=O)O show?
Result :: 145 µg·h/mL

Query :: How about this molecule: CC(C)(O/N=C(\C(=O)N[C@@H]1C(=O)N2C(C(=O)[O-])=C(C[n+]3ccccc3)CS[C@H]12)c1csc(N)n1)C(=O)O
Result :: 923 µg·h/mL

====

test: Individual predicted steady‐state exposures; assay type: in vivo, human; settings: human, plasma, intravenous, AUCss,0–24 geometric mean (CV), Patient population: NP
Below, each entry is listed alongside its reported AUC.
Could you kindly put the unit after your number?

Query :: Bench note: what AUC did CC(C)(O/N=C(\C(=O)N[C@@H]1C(=O)N2C(C(=O)[O-])=C(C[n+]3ccccc3)CS[C@H]12)c1csc(N)n1)C(=O)O show?
Result :: 950 µg·h/mL

Query :: How about this compound: NC(=O)[C@@H]1CC[C@@H]2CN1C(=O)N2OS(=O)(=O)O
Result :: 169 µg·h/mL

====

test: Individual predicted steady‐state exposures; assay type: in vivo, human; conditions: human, plasma, intravenous, AUCss,0–24 geometric mean (CV), SIRS at baseline: Missing
Reported Metric: AUC (µg·h/mL)
Field format: number, assumed µg·h/mL, no unit text.

>>> recorded_number("NC(=O)[C@@H]1CC[C@@H]2CN1C(=O)N2OS(=O)(=O)O")
129

We next turn to a different molecule, shown below.
Query :: Bench note: what AUC did CC(C)(O/N=C(\C(=O)N[C@@H]1C(=O)N2C(C(=O)[O-])=C(C[n+]3ccccc3)CS[C@H]12)c1csc(N)n1)C(=O)O show?
Result :: 977

====

Below, each entry is listed alongside its reported AUC.
assay: Individual predicted steady‐state exposures; type: in vivo, human; settings: human, plasma, intravenous, AUCss,0–24 geometric mean (CV), Bacteremia at baseline: Yes
Field format: number, assumed µg·h/mL, no unit text.

>>> recorded_number("NC(=O)[C@@H]1CC[C@@H]2CN1C(=O)N2OS(=O)(=O)O [Avibactam, avibactam]")
161

Query :: Bench note: what AUC did CC(C)(O/N=C(\C(=O)N[C@@H]1C(=O)N2C(C(=O)[O-])=C(C[n+]3ccccc3)CS[C@H]12)c1csc(N)n1)C(=O)O [Ceftazidime, ceftazidime] show?
Result :: 919

====

experiment: Individual predicted steady‐state exposures; type: in vivo, human; conditions: human, plasma, AUCss,0–24 geometric mean (CV), Asian population: Japan
Reported Metric: AUC

>>> result("NC(=O)[C@@H]1CC[C@@H]2CN1C(=O)N2OS(=O)(=O)O")
"164 µg·h/mL"

We next turn to a different molecule, shown below.
Query :: Bench note: what AUC did CC(C)(O/N=C(\C(=O)N[C@@H]1C(=O)N2C(C(=O)[O-])=C(C[n+]3ccccc3)CS[C@H]12)c1csc(N)n1)C(=O)O show?
Result :: 1020 µg·h/mL

====

assay: Individual predicted steady‐state exposures; type: in vivo, human; settings: human, plasma, C max,ss geometric mean (CV), Fever at baseline: No
Reported Metric: Cmax (ng/mL)
Field format: number, assumed ng/mL, no unit text.

>>> recorded_number("NC(=O)[C@@H]1CC[C@@H]2CN1C(=O)N2OS(=O)(=O)O")
12900

We next turn to a different compound, shown below.
Query :: Bench note: what Cmax did CC(C)(O/N=C(\C(=O)N[C@@H]1C(=O)N2C(C(=O)[O-])=C(C[n+]3ccccc3)CS[C@H]12)c1csc(N)n1)C(=O)O show?
Result :: 71900

====

experiment: Individual predicted steady‐state exposures; format: in vivo, human; details: human, plasma, intravenous, C max,ss geometric mean (CV), Patient population: cIAI
Below, each entry is listed alongside its reported Cmax.

>>> result("NC(=O)[C@@H]1CC[C@@H]2CN1C(=O)N2OS(=O)(=O)O [Avibactam, avibactam]")
"12800 ng/mL"

Query :: Bench note: what Cmax did CC(C)(O/N=C(\C(=O)N[C@@H]1C(=O)N2C(C(=O)[O-])=C(C[n+]3ccccc3)CS[C@H]12)c1csc(N)n1)C(=O)O [Ceftazidime, ceftazidime] show?
Result :: 66900 ng/mL

====

test: Individual predicted steady‐state exposures; format: in vivo, human; conditions: human, plasma, intravenous, AUCss,0–24 geometric mean (CV), SIRS at baseline: No
Reported Metric: AUC (µg·h/mL)
Field format: number, assumed µg·h/mL, no unit text.

>>> recorded_number("CC(C)(O/N=C(\\C(=O)N[C@@H]1C(=O)N2C(C(=O)[O-])=C(C[n+]3ccccc3)CS[C@H]12)c1csc(N)n1)C(=O)O")
895

We next turn to a different compound, shown below.
Query :: Bench note: what AUC did NC(=O)[C@@H]1CC[C@@H]2CN1C(=O)N2OS(=O)(=O)O show?
Result :: 143

====

assay: Individual predicted steady‐state exposures; type: in vivo, human; details: human, plasma, intravenous, C max,ss geometric mean (CV), Baseline APACHE II score Missing
Reported Metric: Cmax (ng/mL)
Field format: number, assumed ng/mL, no unit text.

>>> recorded_number("NC(=O)[C@@H]1CC[C@@H]2CN1C(=O)N2OS(=O)(=O)O")
12100

We next turn to a different compound, shown below.
Query :: Bench note: what Cmax did CC(C)(O/N=C(\C(=O)N[C@@H]1C(=O)N2C(C(=O)[O-])=C(C[n+]3ccccc3)CS[C@H]12)c1csc(N)n1)C(=O)O show?
Result :: 77900
